system-under-test: Aldehyde oxidase (Homo sapiens, UniProt Q06278)
Sequence (Q06278 whole entry): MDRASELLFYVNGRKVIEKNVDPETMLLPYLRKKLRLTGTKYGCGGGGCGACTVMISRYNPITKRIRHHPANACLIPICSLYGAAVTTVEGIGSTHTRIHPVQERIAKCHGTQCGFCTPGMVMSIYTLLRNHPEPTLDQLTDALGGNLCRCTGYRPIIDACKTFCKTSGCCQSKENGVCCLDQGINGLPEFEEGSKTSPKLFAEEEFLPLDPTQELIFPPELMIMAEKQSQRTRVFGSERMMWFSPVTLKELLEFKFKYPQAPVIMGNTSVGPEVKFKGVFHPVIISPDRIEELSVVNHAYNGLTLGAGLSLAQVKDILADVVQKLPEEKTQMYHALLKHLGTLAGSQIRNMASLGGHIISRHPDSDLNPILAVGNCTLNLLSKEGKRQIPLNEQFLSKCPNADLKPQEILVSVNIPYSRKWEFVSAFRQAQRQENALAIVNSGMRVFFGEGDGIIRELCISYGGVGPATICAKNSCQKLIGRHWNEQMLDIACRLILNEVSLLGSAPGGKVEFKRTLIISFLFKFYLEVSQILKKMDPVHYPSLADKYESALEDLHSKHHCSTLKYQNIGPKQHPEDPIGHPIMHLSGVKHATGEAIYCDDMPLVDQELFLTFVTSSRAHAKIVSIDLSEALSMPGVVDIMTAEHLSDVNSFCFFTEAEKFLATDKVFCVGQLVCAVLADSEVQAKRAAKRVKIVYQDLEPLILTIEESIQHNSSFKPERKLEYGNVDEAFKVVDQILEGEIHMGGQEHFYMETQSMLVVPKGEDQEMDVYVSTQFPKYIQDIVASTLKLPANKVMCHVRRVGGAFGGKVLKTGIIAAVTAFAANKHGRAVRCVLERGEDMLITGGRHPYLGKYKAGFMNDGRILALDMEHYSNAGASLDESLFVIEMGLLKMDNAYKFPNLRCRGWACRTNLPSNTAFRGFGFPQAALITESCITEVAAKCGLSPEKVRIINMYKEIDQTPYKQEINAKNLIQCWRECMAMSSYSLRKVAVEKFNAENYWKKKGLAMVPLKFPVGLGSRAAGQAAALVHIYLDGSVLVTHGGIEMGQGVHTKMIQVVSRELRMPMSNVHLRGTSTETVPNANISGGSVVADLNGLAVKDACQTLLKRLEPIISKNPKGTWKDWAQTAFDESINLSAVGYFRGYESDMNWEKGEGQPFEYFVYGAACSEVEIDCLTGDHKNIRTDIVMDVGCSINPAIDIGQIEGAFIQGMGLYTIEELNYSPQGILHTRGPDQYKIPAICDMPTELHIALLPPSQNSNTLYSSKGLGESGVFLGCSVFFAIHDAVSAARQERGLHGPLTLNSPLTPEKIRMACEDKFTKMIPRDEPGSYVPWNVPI
protocol: Half life in human liver S9 fraction assessed as aldehyde oxidase-mediated 2-oxo-metabolite formation at 1 uM by spectrometry
Assay type: ADME, subcellular
measurement-parameters: s9, 1 µM
Below, each entry is listed alongside its reported t1/2.

molecule: N=C(N)NC(=O)c1cnn(-c2ccnc3ccccc23)c1C1CC1
system-under-test: Aldehyde oxidase (Homo sapiens, UniProt Q06278)
t1/2: 14 min

molecule: N=C(N)NC(=O)c1cnn(-c2cccc3[nH]cnc23)c1C1CC1
system-under-test: Aldehyde oxidase (Homo sapiens, UniProt Q06278)
t1/2: 120 min

molecule: CC(C)c1c(C(=O)NC(=N)N)cnn1-c1cccc2ncccc12
system-under-test: Aldehyde oxidase (Homo sapiens, UniProt Q06278)
t1/2: 15 min

molecule: N=C(N)NC(=O)c1cnn(-c2cccc3ncccc23)c1C1CC1 [ZONIPORIDE]
system-under-test: Aldehyde oxidase (Homo sapiens, UniProt Q06278)
t1/2: 26 min

molecule: CCCCc1c(C(=O)NC(=N)N)cnn1-c1cccc2ncccc12
system-under-test: Aldehyde oxidase (Homo sapiens, UniProt Q06278)
t1/2: 48 min

molecule: CCCc1c(C(=O)NC(=N)N)cnn1-c1cccc2ncccc12
system-under-test: Aldehyde oxidase (Homo sapiens, UniProt Q06278)
t1/2: 41 min

molecule: N=C(N)NC(=O)c1cnn(-c2c(O)ccc3ncccc23)c1C1CC1
system-under-test: Aldehyde oxidase (Homo sapiens, UniProt Q06278)
t1/2: 120 min

molecule: N=C(N)NC(=O)c1cn(-c2cccc3ncccc23)nc1C1CC1
system-under-test: Aldehyde oxidase (Homo sapiens, UniProt Q06278)
t1/2: 3.1 min

molecule: COCc1c(C(=O)NC(=N)N)cnn1-c1cccc2ncccc12
system-under-test: Aldehyde oxidase (Homo sapiens, UniProt Q06278)
t1/2: 120 min

molecule: N=C(N)NC(=O)c1cnn(-c2ccc3ncccc3c2)c1C1CC1
system-under-test: Aldehyde oxidase (Homo sapiens, UniProt Q06278)
t1/2: < 5 min

molecule: CCN(CC)C(=O)c1cnn(-c2cccc3ncccc23)c1C1CC1
system-under-test: Aldehyde oxidase (Homo sapiens, UniProt Q06278)
t1/2: 37 min

molecule: Cc1c(C(=O)N=C(N)N)cnn1-c1cccc2ncccc12
system-under-test: Aldehyde oxidase (Homo sapiens, UniProt Q06278)
t1/2: 33 min

molecule: NC(=O)c1cnn(-c2cccc3ncccc23)c1C1CC1
system-under-test: Aldehyde oxidase (Homo sapiens, UniProt Q06278)
t1/2: 110 min

molecule: Cc1ccc2ncccc2c1-n1ncc(C(=O)NC(=N)N)c1C1CC1
system-under-test: Aldehyde oxidase (Homo sapiens, UniProt Q06278)
t1/2: 120 min

molecule: COc1ccc2ncccc2c1-n1ncc(C(=O)NC(=N)N)c1C1CC1
system-under-test: Aldehyde oxidase (Homo sapiens, UniProt Q06278)
t1/2: 120 min

molecule: O=C(O)c1cnn(-c2cccc3ncccc23)c1C1CC1
system-under-test: Aldehyde oxidase (Homo sapiens, UniProt Q06278)
t1/2: 120 min
